- Target Or Test System: dipeptidyl peptidase IV (Rattus norvegicus)
- Construct: from tissue; host or cells: SD rat blood plasma
- Sequence (P14740 37-767 limits assumed): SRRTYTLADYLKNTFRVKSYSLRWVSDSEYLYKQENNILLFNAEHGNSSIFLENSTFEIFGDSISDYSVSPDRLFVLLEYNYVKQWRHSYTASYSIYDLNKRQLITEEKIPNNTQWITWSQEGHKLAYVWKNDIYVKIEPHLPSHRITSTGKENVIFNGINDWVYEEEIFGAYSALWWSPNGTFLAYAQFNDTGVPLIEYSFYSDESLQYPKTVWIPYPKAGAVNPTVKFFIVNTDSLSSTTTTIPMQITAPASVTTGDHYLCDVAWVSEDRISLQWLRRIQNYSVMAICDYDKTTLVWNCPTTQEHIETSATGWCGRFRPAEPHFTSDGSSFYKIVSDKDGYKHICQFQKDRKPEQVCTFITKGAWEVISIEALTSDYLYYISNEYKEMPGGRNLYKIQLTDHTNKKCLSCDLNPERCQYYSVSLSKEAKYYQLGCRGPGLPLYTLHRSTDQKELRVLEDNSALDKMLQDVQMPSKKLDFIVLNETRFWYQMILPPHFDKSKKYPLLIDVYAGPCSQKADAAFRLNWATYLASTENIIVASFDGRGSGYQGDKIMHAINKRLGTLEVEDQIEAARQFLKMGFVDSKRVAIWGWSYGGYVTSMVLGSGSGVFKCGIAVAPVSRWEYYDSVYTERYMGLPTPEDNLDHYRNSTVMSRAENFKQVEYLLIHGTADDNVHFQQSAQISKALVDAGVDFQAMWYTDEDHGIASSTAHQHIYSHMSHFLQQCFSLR
- Assay Protocol: Determination of dipeptidyl peptidase IV inhibitory activity in rat plasma (Experimental Example 2)
- Type: biochemical
- Study Conditions: plasma of SD rat, same manner as Experimental Example 1; Table 6
- Procedure: A dimethylformamide solution (1 μL) containing the test compound was added to a mixture of water (69 μL), 1 M Tris-hydrochloride buffer (10 μL, pH 7.5) and 1 mM aqueous Gly-Pro-p-NA solution (100 μL) to prepare a mixed solution. […] The absorbance after 0 hr. and 1 hr. was measured using a microplate reader at a wavelength of 405 nm and an increase (AODs) was determined. […]
Structures can show the parent of a compound that is named as a salt.
Entries and their pIC50 values follow.
Keep it numeric: pIC50 is minus log10 of the concentration in mol/L.

Solved entries:
> print(dat)
                                   compound  recorded.result
1  CCc1nc(CC(C)(C)C)c(CN)c(-c2ccc(C)cc2)c1CC(=O)Nc1cccc(S(C)(=O)=O)c1 [Example 7, dihydrochloride]             7.29
2  CCc1nc(CC(C)(C)C)c(CN)c(-c2ccc(C)cc2)c1CC(=O)N1CCC[C@H]1C(N)=O             8.57
3  CCc1nc(CC(C)(C)C)c(CN)c(-c2ccc(C)cc2)c1CC(=O)Nc1cccc(C(C)=O)c1 [Example 5, dihydrochloride]             8.29

Quickly give me recorded pIC50 for Cc1ccc(-c2c(CN)c(CC(C)C)nc(CC(C)C)c2CC(=O)O)cc1 [Example 2, dihydrochloride]
7.46
